Where do these numbers come from? They come from ChEMBL document CHEMBL1201862.

Tested on: EKVX
assay.details: NCI tumour cell line growth inhibition, 48 h
Active and inactive are the calls of the source. No stated cut-off is given here; in the data, active = GI50 up to about 1.1 µM and inactive = higher. Where a SMILES comes first, the peptide text is derived from it. [ ]: non-standard residue; d: D form. The star is where a group is joined. Bn2Val = CC(C)[C@@H](C(=O)*)N(Cc1ccccc1)Cc1ccccc1; NHPiperonyl = c1cc2c(cc1CN*)OCO2; NMeV = CN[C@H](C(=O)O)C(C)C; dNMeA = CN[C@H](C)C(=O)O
Outcome (select one): active, inactive

compound	classification
COc1cccc2c1CCc1ccccc1CC2=O	inactive

Query string: Recorded test call requested for "Nn1c(-c2ccccc2)n[nH]c1=O"
Result string: inactive

Query string: Recorded call for CC1=NNC(=O)C1C1C(=O)NN=C(c2c[nH]c3ccccc23)C1Br (centres undefined) ?
Result string: inactive

Query string: For "CC1(C)CC(=O)C=C(NC(=O)c2ccccc2)C1" , which call appears in the assay record?
Result string: inactive

Query string: Test call, this compound: CC(C)[C@H](NC(=O)[C@H](C(C)C)N(Cc1ccccc1)Cc1ccccc1)C(=O)N(C)[C@H](C(=O)N1CCC[C@H]1C(=O)N(C)[C@H](C)C(=O)NCc1ccc2c(c1)OCO2)C(C)C (Bn2Val-V[NMeV]P[dNMeA]-NHPiperonyl)
Result string: inactive

Query string: Status in this test for Cc1nn(-c2ccccc2)c2c1C(c1ccc(Cl)cc1)NC(=S)N2 (centres undefined) ?
Result string: inactive

Query string: Tell me the recorded outcome of this test for "CC(C)(C)CNC(=O)NCn1cc(-c2ccccc2)nn1" .
Result string: inactive

Query string: In this assay, the call recorded for COC(=O)C(=O)C(C(=O)OC)C(=O)C(=O)Nc1c(Cl)cc([N+](=O)[O-])cc1Cl (centres undefined) was what?
Result string: inactive

Query string: State the result this test recorded for COc1ccc(C[C@H](N)C(=O)NC2C(CO)OC(n3cnc4c(N(C)C)ncnc43)C2O)cc1 (some centres undefined) .
Result string: active

Query string: Record request — test call for COc1c(O)c2c(c3cc(C(=O)N4CCc5c4c(O)c(OC)c4[nH]c(C(=O)N6CC7CC78C6=CC(=O)c6[nH]cc(C)c68)cc54)[nH]c13)CCN2C(N)=O (centres undefined)
Result string: active

Query string: Field: outcome | Entry: "C/C(=N/NC(=S)N1CCCCC1)c1cccc(/C(C)=N\NC(=S)N2CCCCC2)n1"
Result string: inactive

---

Provide the recorded GI50 for the entries that follow.
Test system: KM12
assay.details: NCI tumour cell line growth inhibition, 48 h
The source made the active and inactive calls. Cut-off read from the data, not from the text of the source: active = GI50 up to about 1.1 µM and inactive = higher.

Solved cases below.
compound	GI50
CC#CC#C/C=C1\C=CC2(OC=CC2O)O1 (stereo unspecified)	3.32 µM (inactive)
CCC1=NC(N/N=C/c2ccco2)=N/C1=C\c1ccco1	> 100 µM (inactive)
C#CC1(OC(C)=O)CCC2C3CC=C4C=C(OC(C)=O)CCC4(C)C3CCC21C (stereo unspecified)	20.4 µM (inactive)
NC(CSCc1ccccc1)C(=O)O (stereo unspecified)	> 100 µM (inactive)
O=C(C(=O)N1CCc2ccccc21)c1c[nH]c2ccccc12	> 10 µM (inactive)

Please state, for each entry, its recorded GI50.
1. COC(=O)/C=C(/OC)[C@H](C)[C@H](/C=C/c1csc(-c2csc(C(C)C)n2)n1)OC
2. COC(=O)CC(SCCO)SCCO
3. CCOC(=O)CC[C@H](N)C(=O)N[C@H](Cc1ccc(N(CCCl)CCCl)cc1)C(=O)OCC

Result string:
["1.52 µM (inactive)", "> 100 µM (inactive)", "3.32 µM (inactive)"]

Report GI50 for every entry below.
1. Cc1nc2c(nc1C)C(=O)c1cc(O)ccc1C2=O
2. COc1ccc(CNc2nc3cc(C(F)(F)F)ccc3nc2C(=O)O)cc1OC

Result string:
["> 100 µM (inactive)", "32.1 µM (inactive)"]

Query string: Given "Cc1cc(C)nc(NS(=O)(=O)c2ccc(Nc3c4ccc(Cl)cc4nc4c(C(=O)NCCN(C)C)cccc34)cc2)n1" , state its recorded GI50.
Result string: > 100 µM (inactive)
